Recorded values, source paper PMC6682008.

pIC50, hSPR (human sepiapterin reductase) (Homo sapiens, UniProt P35270): measured values
Numbers only, as −log10 of the molar value.

Please review the following examples before continuing.
COc1ccc(/C=C/C(=O)Nc2ccccc2C(=O)O)cc1OC [tranilast]: 5.23
C[C@H](Cc1ccc(O)c(O)c1)[C@@H](C)Cc1ccc(O)c(O)c1 [nordihydroguaiaretic acid]: 5.08

Could you now look at the following compound, please?
// field: pIC50; key: CC(=O)NCCc1c[nH]c2ccc(O)cc12 [N-acetylserotonin, reference compound] ; value = 4.94
